Compiled record: IC50 values for UniProt P09619 across several sources.

Example results:
| smiles-text | IC50 |
| --- | --- |
| CCn1cc2ncc(N[C@@H](C)c3cccc(NC(=O)Cc4ccc(Cl)c(F)c4)c3)nc2n1 | 300 to 1000 nM |
| Cc1cncc(C(=O)Nc2cccc([C@H](C)Nc3cnc4cn[nH]c4n3)c2)c1 | < 300 nM |
| C[C@H](Nc1cnc2cnn(C)c2n1)c1cccc(NC(=O)Cc2cnn(C)c2)c1 | ≥ 1000 nM |
| CCn1cc2ncc(N[C@@H](C)c3cc(NC(=O)Cc4cc(C)ccn4)ccc3C)nc2n1 | < 300 nM |
| COc1ccc(Cn2ccc3ncc(N[C@@H](C)c4cccc(NC(=O)c5cncc(C)c5)c4)cc32)cc1OC | ≥ 1000 nM |
| O=C(N[C@H]1CCCC[C@@H]1O)c1ccc(F)c(/C=C(\F)c2cncc(-c3ccccn3)c2)c1 | 15 nM |
| CN1CCN(Cc2cc(NC(=O)Nc3ccc(Oc4ccnc(-c5nnco5)c4)cc3)cc(C(F)(F)F)c2)CC1 | ≤ 10000 nM |
| C[C@H](Nc1cnc2cnn(C)c2n1)c1cccc(NC(=O)c2cnn(C(C)(C)C)c2)c1 | < 300 nM |
| Cc1ccc(C(=O)N[C@H]2CCCC[C@@H]2O)cc1NC(=O)c1cnc(NC2(C)CCC2)s1 | 43 nM |
| Cc1c[nH]c2ncc(N[C@@H](C)c3cccc(NC(=O)c4ccc(C5CC5)nc4)c3)nc12 | < 300 nM |

Prompt: Field request: IC50 | item: Cc1ccc(C(=O)N[C@H]2c3ccccc3C[C@@H]2O)cc1/C=C(\F)c1cncc(CN2CCN(C)CC2)c1
Completion: 16 nM

Prompt: Try this compound too: CCn1cc2ncc(N[C@@H](C)c3cccc(NC(=O)c4cnc(OC)c(C)c4)c3)nc2n1
Completion: < 300 nM

Prompt: Try this compound too: CCc1ncc(C(=O)Nc2cccc([C@H](C)Nc3cnc4cnn(C)c4n3)c2)cc1C
Completion: < 300 nM

* * *

Compiled record: IC50 values for Platelet-derived growth factor receptor beta (Homo sapiens) across several sources.

| smiles-text | IC50 |
| --- | --- |
| Cc1ccc(C(=O)N[C@H]2CCCC[C@@H]2O)cc1NCc1ccc(NC2CCC2)nc1 | 80 nM |
| Cc1cncc(C(=O)Nc2cccc([C@H](C)Nc3cnc4cnn(C5CC5)c4n3)c2)c1 | < 300 nM |
| Cc1cncc(C(=O)Nc2cccc([C@H](C)Nc3cnc4ccsc4c3)c2)c1 | < 300 nM |
| CCn1cc2ncc(N[C@@H](C)c3cc(NC(=O)Cc4ccc(F)c(C)n4)ccc3F)nc2n1 | < 300 nM |
| CCN(Cc1cc(C(=O)N[C@H]2CCCC[C@@H]2O)ccc1C)c1cncc(-c2ccccc2)c1 | 50 nM |
| O=C(Nc1ccc(F)cc1)C1(C(=O)Nc2ccc(Oc3ccnc(-c4cnn(CCO)c4)c3)c(F)c2)CC1 | < 10000 nM |
| COCCOCCOCCOCCOCCNCc1ccc(C(=O)Nc2ccc(C)c(Nc3nccc(-c4cccnc4)n3)c2)cc1 | 220 nM |
| CCn1cc2ncc(N[C@@H](C)c3cc(NC(=O)c4ccc(C(F)(F)F)nc4)ccc3Cl)nc2n1 | < 300 nM |

Switching to the query record.
Prompt: Field request: IC50 | item: CCn1cc2ncc(N[C@@H](C)c3cccc(NC(=O)c4ccc(C)c(F)c4)c3)nc2n1
Completion: < 300 nM

* * *

Compiled record: IC50 values for Platelet-derived growth factor receptor beta (Homo sapiens) across several sources.

Example results:
| smiles-text | IC50 |
| --- | --- |
| CCn1cc2ncc(N[C@@H](C)c3cc(NC(=O)Cc4ccc(C)c(N5CCN(C)CC5)c4)ccc3C)nc2n1 | < 300 nM |
| Cn1cc(-c2cc(Oc3cccc(NC(=O)c4ccc(C#N)cc4)c3)ccn2)cn1 | > 10000 nM |
| Cc1c[nH]c2ncc(N[C@@H](C)c3cccc(NC(=O)c4cc(C(C)C)on4)c3)nc12 | < 300 nM |
| COC(=O)CCCCS(=O)(CCCCC(=O)OC)=NC(=O)c1cnc(N)c(C#Cc2cccc(NC(=O)c3occc3C)c2)c1 | 176 nM |
| Cc1ccc(C(=O)N[C@H]2CCCC[C@@H]2O)cc1N[C@@H](C)c1cncc(-c2ccccc2)c1 | 19 nM |
| Cc1ccc(NC(=O)c2cccc(C(F)(F)F)c2)cc1NC(=O)N(CCN1CCOCC1)c1cc(N)ncn1 | 0.4 nM |
| CCn1cc2ncc(N[C@@H](C)c3cc(NC(=O)c4ccc(CN5CCCC5)c(C)c4)ccc3F)nc2n1 | < 300 nM |
| CC(C)=Cc1cncc(C(=O)Nc2cc(C(=O)N[C@H]3CCCC[C@@H]3O)ccc2C)c1 | 26 nM |

Prompt: Field request: IC50 | item: CCn1cc2ncc(N[C@@H](C)c3cccc(NC(=O)c4cnc(C(F)(F)F)s4)c3)nc2n1
Completion: < 300 nM

Prompt: Try this compound too: CCc1ccc(CC(=O)Nc2cccc([C@H](C)Nc3cnc4cn(CC)nc4n3)c2)nc1
Completion: ≥ 1000 nM

Prompt: Try this compound too: CCn1cc2ncc(N[C@@H](C)c3cccc(NC(=O)c4ccc(CN5CCC(F)(F)CC5)c(C)c4)c3)nc2n1
Completion: 300 to 1000 nM

Prompt: Try this compound too: CCn1cc2ncc(N[C@@H](C)c3cccc(NC(=O)Nc4cnc(NC)c(C)c4)c3)nc2n1
Completion: 300 to 1000 nM

Prompt: Try this compound too: Nc1ncc(CNc2cc(C(=O)N[C@H]3CCCC[C@@H]3O)ccc2Cl)cn1
Completion: 210 nM

Prompt: Try this compound too: Cn1cc(-c2cc(Oc3c(F)cc(NC(=O)NC(=O)Cc4ccc(F)cc4)cc3F)ccn2)cn1
Completion: < 10000 nM

Prompt: Try this compound too: O=C(Nc1cccc(Oc2ccnc(-c3nnco3)c2)c1)c1cccc(N2CCOCC2)c1
Completion: ≤ 10000 nM

Prompt: Try this compound too: CCn1cc2ncc(N[C@@H](C)c3cccc(NC(=O)c4ccc(OC(F)(F)F)nc4)c3)nc2n1
Completion: 300 to 1000 nM

Prompt: Try this compound too: CC(C)Cn1ccc(C(=O)Nc2cccc([C@H](C)Nc3cnc4cnn(C)c4n3)c2)n1
Completion: < 300 nM

* * *

Compiled record: IC50 values for Platelet-derived growth factor receptor beta (Homo sapiens, UniProt P09619) across several sources.

Example results:
| smiles-text | test-readout | meas-value |
| --- | --- | --- |
| CN(C(=O)Nc1ccc(Cl)c(Cl)c1)c1ccc(Oc2ccnc(-c3nnco3)c2)cc1 | IC50 | ≤ 10 µM |
| C[C@H](Nc1cnc2cnn(C)c2n1)c1cccc(NC(=O)[C@H]2C[C@H]2C(F)(F)F)c1 | IC50 | ≥ 1 µM |
| CCn1cc2ncc(N[C@@H](C)c3cccc(NC(=O)Cc4ccc(F)c(Cl)c4)c3)nc2n1 | IC50 | < 0.3 µM |
| Cc1cncc(C(=O)Nc2cccc([C@H](C)Nc3cncc4c3c(C)nn4-c3cnn(C)c3)c2)c1 | IC50 | ≥ 1 µM |
| COc1ccc(C(=O)Nc2cccc(Oc3ccnc(-c4nnco4)c3)c2)cc1OC1CCCC1 | IC50 | ≤ 10 µM |
| Cc1cncc(C(=O)Nc2cccc([C@H](C)Nc3cnc4cccnc4c3)c2)c1 | IC50 | ≥ 1 µM |

Prompt: Request: IC50, test system Platelet-derived growth factor receptor beta (Homo sapiens, UniProt P09619), entry CCn1cc2ncc(N[C@@H](C)c3cccc(NC(=O)Cc4cccc(C)c4)c3)nc2n1
Completion: < 0.3 µM

Prompt: Try this compound too: C[C@H](Nc1cnc2cnn(C)c2n1)c1cccc(NC(=O)c2cc(C(C)(C)C)on2)c1
Completion: < 0.3 µM

* * *

Compiled record: IC50 values for Platelet-derived growth factor receptor beta (Homo sapiens) across several sources.

Example results:
| smiles-text | meas-value |
| --- | --- |
| CCn1cc2ncc(N[C@@H](C)c3cccc(NC(=O)c4cnc(NC(C)C)c(C)c4)c3)nc2n1 | 300 to 1000 nM |
| Cc1nn(C)cc1-c1cc(Oc2cc(F)c(NC(=O)C3(C(=O)Nc4ccc(F)cc4)CC3)cc2F)ccn1 | < 10000 nM |
| CCn1cc2ncc(N[C@@H](C)c3cccc(NC(=O)c4cnc(N5CCOCC5)c(C)c4)c3)nc2n1 | < 300 nM |
| C[C@H](Nc1cnc2cnn(C)c2n1)c1cccc(NC(=O)c2ccn(C(F)F)n2)c1 | ≥ 1000 nM |
| Cc1[nH]c(/C=C2\C(=O)Nc3cc(-c4ccccc4)ccc32)c(C)c1C(=O)NCCCn1ccnc1 | < 780 nM |

Prompt: Field request: IC50 | item: CCn1cc2ncc(N[C@@H](C)c3cc(NC(=O)Cc4cncc(Cl)c4)ccc3C)nc2n1
Completion: < 300 nM

Prompt: Try this compound too: CCOC(=O)c1coc(-c2cc(Oc3cccc(NC(=O)Nc4ccc(Cl)c(C(F)(F)F)c4)c3)ncn2)n1
Completion: ≤ 10000 nM

Prompt: Try this compound too: CCn1cc2ncc(N[C@@H](C)c3cc(NC(=O)Cc4ccc5c(n4)CCC5)ccc3C)nc2n1
Completion: < 300 nM

Prompt: Try this compound too: C[C@H](Nc1cnc2cnn(C)c2n1)c1cccc(NC(=O)c2cc(C(C)(C)C)nn2C)c1
Completion: < 300 nM
